Data origin, for the record: paper PMC5568800

Molecular target: X2IRBP (second module of Xenopus IRBP), wild-type sequence
Format: binding
Conditions: read-out: Kd, Enhancement; all-trans retinol; excitation 330 nm, emission 480 nm; Figure 4
experimental.readout: Kd (nM)
Numbers only, in nM.

Which Kd is listed for CC1=C(/C=C/C(C)=C/C=C/C(C)=C/CO)C(C)(C)CCC1 [all-trans retinol] ?
70

* * *

Molecular target: W587F X2IRBP
Assay: Titration monitoring quenching of tryptophan fluorescence, W587F mutant
Assay type: binding, Xenopus
Details: read-out: Kd, Quenching, 11-cis retinol, excitation 280 nm, emission 340 nm, Figure 7
experimental.readout: Kd (nM)
Numbers only, in nM.

Which Kd is listed for CC1=C(/C=C/C(C)=C/C=C\C(C)=C\CO)C(C)(C)CCC1 [11-cis retinol] ?
24
